- Test system: OVCAR-8
- MEASUREMENT PROTOCOL: NCI tumour cell line growth inhibition, 48 h
Calls of active or inactive are those of the source. Rule as the data show it: active = GI50 up to about 1.1 µM and inactive = higher.
Outcome codes: yes (1) = active, no (0) = inactive

MOLECULE	MEASURED TARGET	DISCRETE LABEL
CCOP(=O)(OCC)/C(C#N)=C/c1cnc(C)[nH]1	OVCAR-8	no (0)
O=C1C(Br)=CC2(C=C1Br)CCNC1=C2C(=O)c2[nH]cnc2C1=O	OVCAR-8	no (0)
COc1ccc2c(CCNC(C)=O)c(C(C)=O)[nH]c2c1	OVCAR-8	no (0)
O=C(c1ccccc1)N(C(=O)c1ccccc1)c1nc(SCc2ccccc2)ns1	OVCAR-8	no (0)
Cc1c2cnccc2c(C)c2c1c1ccccc1n2CCCCCCNCc1ccccc1	OVCAR-8	yes (1)
COCc1nc2c(OC)c(-c3nc4ccc(N5CCN(C)CC5)nc4[nH]3)cc(OC)c2n1C	OVCAR-8	no (0)
Cc1nn(C(=O)c2ccccc2O)c2c1C(c1ccc(O)cc1O)SC(=N)N2 (configuration not stated)	OVCAR-8	no (0)
COc1ccc(C(=O)O)c2c(=O)c3cccnc3[nH]c12	OVCAR-8	no (0)
O=C1CC(C(O)C(O)C(O)CO)CC(=O)N1 (configuration not stated)	OVCAR-8	no (0)
COc1ccc(/C=c2\c(=O)[nH]c3nc4ccccc4c(=O)n23)cc1	OVCAR-8	no (0)
Cc1ccc(/N=N\c2c(O)c(S(=O)(=O)O)cc3cc(S(=O)(=O)O)ccc23)c(C)c1	OVCAR-8	no (0)
CCOc1ccc(NC(=O)C(=O)C(/C(=N/N)C(=O)OC)c2nc3ccc([N+](=O)[O-])cc3nc2O)cc1 (configuration not stated)	OVCAR-8	no (0)
Cc1nc2c(n1CCC(C)C)C(=O)c1ccccc1C2=O	OVCAR-8	no (0)
C=Cc1cncc(C#N)c1CCc1c(C#N)cncc1C=C	OVCAR-8	no (0)
O=C(O)CCC(=O)c1ccc[nH]1	OVCAR-8	no (0)
Cn1cnc([N+](=O)[O-])c1Sc1nc2cccnc2s1	OVCAR-8	no (0)
NS(=O)(=O)c1cc(C(=O)O)c(O)c2ccccc12	OVCAR-8	no (0)
Cc1cc(C)c2ccc(N3CCNCC3)nc2n1	OVCAR-8	no (0)
COc1ccc2oc(=N)c(C(=O)NCc3ccccc3)cc2c1	OVCAR-8	no (0)
CC(N/N=C(\S)N1CCCC1)c1cccnn1 (configuration not stated)	OVCAR-8	yes (1)
COc1c2c(cc3c1C(=O)Cc1ccc4c(c1CN(C)CC3)OCO4)OCO2	OVCAR-8	no (0)
CC(/C=N/N(C)C1=NCCCN1)=N/N(C)C1=NCCCN1	OVCAR-8	no (0)
CC(=O)OC1(C#N)CC2OC1C1NC21 (configuration not stated)	OVCAR-8	no (0)
C=CC(c1ccccc1)[C@@]1(OC(C)=O)C(=O)C(=O)OC1C1COC(C)(C)O1 (some centres not stated)	OVCAR-8	no (0)
CN[C@H](C)[C@@H](OC)c1ccccc1	OVCAR-8	no (0)
CN(C)c1ccc(/C=N/c2ccc(-c3nc4ccccc4s3)cc2)cc1	OVCAR-8	no (0)
CN(CCN(C)C(=O)CCOS(C)(=O)=O)C(=O)CCOS(C)(=O)=O	OVCAR-8	no (0)
O=C(/C=C/c1cccc([N+](=O)[O-])c1)c1cccnc1	OVCAR-8	no (0)
O=C(O)c1ccccc1NS(=O)(=O)c1ccc([N+](=O)[O-])cc1	OVCAR-8	no (0)
Cc1nc2ccccc2[nH]/c1=N/Nc1ccccc1	OVCAR-8	no (0)
NC1=C(N2CCOCC2)C(=O)NC2=N/C(=C\c3ccccc3)C(=O)N21	OVCAR-8	no (0)
CN(CCNC(=S)c1cn(C)c2c1ccc1ccccc12)CCNC(=S)c1cn(C)c2c1ccc1ccccc12	OVCAR-8	no (0)
CC[C@](C)(O)C(=O)O[C@H]1C(=O)O[C@@H]2C[C@H]3C(C)=C[C@H](O)[C@@H](O)[C@]3(C)[C@H]3[C@@]4(O)OC[C@]32[C@@H]1[C@@H](C)[C@H]4O	OVCAR-8	no (0)
COc1ccc(C(OC(C)=O)C2C(=C(C#N)C#N)c3ccccc3C2=C(C#N)C#N)cc1 (configuration not stated)	OVCAR-8	no (0)
C=C(C)C1CC(=O)C(C)=C(O)C1 (configuration not stated)	OVCAR-8	no (0)
Cc1cc2cc3cc(C)c(N)cc3nc2cc1N [ACRIDINE YELLOW]	OVCAR-8	yes (1)
CC(=O)C1(O)CCC2(O)C3(O)CC=C4CC(O)CCC4(C)C3CC(OC(=O)c3ccc(O)cc3)C12C.COC1CC(OC2C(C)OC(OC3C(C)OC(OC4CCC5(C)C(=CCC6(O)C5CC(OC(=O)c5ccc(O)cc5)C5(C)C(O)(C(C)=O)CCC65O)C4)CC3OC)CC2OC)OC(C)C1O (configuration not stated)	OVCAR-8	no (0)
O=C1CCN2C(=O)CCN12	OVCAR-8	no (0)
CC1CCc2c(c(CC3CC(=O)NC(=O)C3)nn2-c2ccccc2)C1 (configuration not stated)	OVCAR-8	no (0)
Cc1cc(=O)[nH]c2cc(NC(=O)C(CCCNC(=N)N)NC(=O)OCc3ccccc3)ccc12 (configuration not stated)	OVCAR-8	no (0)
Cc1nc2c(nc1C)-c1[nH]c3c(c1C(=O)C2=O)CCCC3=O	OVCAR-8	no (0)
O=C(CCC(=O)C(C(=O)c1ccccc1)c1ccccc1)Nc1cccc(C(F)(F)F)c1 (configuration not stated)	OVCAR-8	no (0)

---

- Tested on: LOX IMVI
- MEASUREMENT PROTOCOL: NCI tumour cell line growth inhibition, 48 h
The source made the active and inactive calls. Rule as the data show it: active = GI50 up to about 1.1 µM and inactive = higher. Where a SMILES comes first, the peptide text is derived from it. Bridges are numbered along the chain shown (N, C = ends). [ ]: non-standard residue; d: D form. The star is where a group is joined. ξ: configuration not given here. X28 = O=C(/C=C/C=C/C=C/C=C/C=C/C(=O)*)NC1=C(O)CCC1=O; NMeA = CN[C@@H](C)C(=O)O; ξF = NC(Cc1ccccc1)C(=O)O; ξA = CC(N)C(=O)O
Classes used: T = active, F = inactive

COMPOUND	DISCRETE LABEL
COc1cc(Br)c(CC2C3=C(CCN2C(=O)C2CCC2)CC(=O)CC3)cc1O (stereo not drawn)	F
O=C1c2ccccc2C(=O)c2c1ccc1nc3c(nc21)-c1c2ccccc2cc2cccc-3c12	F
COc1cc(C2CC(C)(N3CCCC3)Oc3cc4c(cc32)OCO4)cc(OC)c1OC (stereo not drawn)	T
CC1=NN(c2ccccc2)C(=O)C1/N=N/c1ccc([As](=O)(O)O)c(O)c1 (stereo not drawn)	F
CC1NC(=O)[C@H](C)N(C)C(=O)[C@@H]2CCCN2C(=O)[C@@H](NC(=O)C(Cc2ccccc2)NC(=O)/C=C/C=C/C=C/C=C/C=C/C(=O)NC2=C(O)CCC2=O)COC(=O)[C@@H]2CCCN2C1=O (stereo partly drawn) (X28-[ξF]SP[NMeA][ξA]P; ester 2-C)	F
C=Cc1ccc(C)[n+](C[Si](C)(C)O[Si](C)(C)C[n+]2cc(C=C)ccc2C)c1	F
O=c1[nH]nc(-c2ccccc2)n1-c1ccncc1	F
Cc1cccc2c1C/C(=C\c1cccc(C)c1C(=O)O)C2=O	F
Cc1ccc(SCC(CF)OC(C)n2cnc3c(Cl)nc(N)nc32)cc1 (stereo not drawn)	F
CC(=O)NNc1nc(C)c(C(=O)/C=C/c2ccc(Cl)cc2)s1	F
COC(OC)C1OC(CO)C(n2cc(F)c(=O)[nH]c2=O)C1O (stereo not drawn)	F
CN(CCNC(=S)c1cn(C)c2c1ccc1ccccc12)CCNC(=S)c1cn(C)c2c1ccc1ccccc12	F
N#Cc1nc(/C=C/c2ccccc2)oc1N	F
CN[C@H](C)[C@@H](OC)c1ccccc1	F
COC(=O)NC(=O)c1cn(CCCOC(=O)CCCCCCCCC(=O)OCCCn2cc(C(=O)NC(=O)OC)c(=O)[nH]c2=O)c(=O)[nH]c1=O	F
COc1nc2ccc(CNc3ccc(C(=O)NC(CCC(=O)O)C(=O)O)cc3)cc2nc1OC (stereo not drawn)	F
NS(=O)(=O)c1ccc(NNC(=O)c2cccc3c(=O)c4ccccc4[nH]c23)cc1	F
CCC(=O)O[C@H]1CC[C@H]2[C@@H]3CCC4=C/C(=N/OC(=O)c5cccc6c(=O)c7ccccc7[nH]c56)CC[C@]4(C)[C@H]3CC[C@]12C	F
O=[N+]([O-])c1ccc(C(Nc2ccccc2)P(c2ccccc2)c2ccccc2)cc1 (stereo not drawn)	F
Cc1cc2cc3cc(C)c(N)cc3nc2cc1N	T
CN(C)CCCN1c2ccc([N+](=O)[O-])cc2CCc2cc([N+](=O)[O-])ccc21	F
Cc1ncc(C/N=C/c2ccc(Cl)cc2)c(N)n1	F
CCOC(=O)N1C(=O)C2C3C=CC(C2C1=O)C1C2C(=O)N(C(=O)OCC)C(=O)C2C31 (stereo not drawn)	F
CNn1c(-c2ccccc2)n[nH]c1=O	F
CSc1nc2[nH]c(=O)c(C)nc2c(=O)[nH]1	F
CC1CCc2c(c(CC3CC(=O)NC(=O)C3)nn2-c2ccccc2)C1 (stereo not drawn)	F
Cc1cc2c(=O)c3ccc(Cl)cc3[nH]c2c(C(=O)O)c1C	F
O=C(c1ccccc1)N(C(=O)c1ccccc1)c1nc(SCc2ccccc2)ns1	F
